# Tested on: guinea pig trachea
# method-summary: relaxing action on guinea pig trachea contracted beforehand with methacholine (in vitro, organ bath)
# Type: cell-based
# study-conditions: Cavia porcellus; in vitro relaxation of methacholine-contracted guinea pig trachea segments, cumulative dose/effect curve, 37° C., n = 3 to 6; read-out: -log[EC50 (mol/l)] (converted)
Returns: string. Value is satisfied if measured EC50 is below 4 nM, and not satisfied if it is greater than or equal to it.

Nc1ccc(C(O)CNCCCCCCOC(=O)Cc2ccccc2Cl)c(Cl)c1Cl (centres unmarked); not satisfied
Nc1c(Cl)cc(C(O)CNCCCCCC(=O)OCCc2ccccn2)cc1Cl (centres unmarked); not satisfied
Nc1c(Cl)cc(C(O)CNCCCCCC(=O)OCCc2c[nH]c3ccccc23)cc1Cl (centres unmarked); satisfied

From here, focus on the item given below.
Query: Please determine if Nc1c(Cl)cc(C(O)CNCCCCCC(=O)OCCc2ccc(O)cc2)cc1Cl (centres unmarked) is below 4 nM in terms of EC50.
Result: satisfied

Data origin: patent US5599966A
